Could you please report measured In vitro activity (relative activity to SEQ ID NO: 1, %), cAMP assay, from EC50 for the items listed next?
- tested system: human glucagon receptor (human, UniProt P47871 26-477)
- Sequence (P47871 26-477): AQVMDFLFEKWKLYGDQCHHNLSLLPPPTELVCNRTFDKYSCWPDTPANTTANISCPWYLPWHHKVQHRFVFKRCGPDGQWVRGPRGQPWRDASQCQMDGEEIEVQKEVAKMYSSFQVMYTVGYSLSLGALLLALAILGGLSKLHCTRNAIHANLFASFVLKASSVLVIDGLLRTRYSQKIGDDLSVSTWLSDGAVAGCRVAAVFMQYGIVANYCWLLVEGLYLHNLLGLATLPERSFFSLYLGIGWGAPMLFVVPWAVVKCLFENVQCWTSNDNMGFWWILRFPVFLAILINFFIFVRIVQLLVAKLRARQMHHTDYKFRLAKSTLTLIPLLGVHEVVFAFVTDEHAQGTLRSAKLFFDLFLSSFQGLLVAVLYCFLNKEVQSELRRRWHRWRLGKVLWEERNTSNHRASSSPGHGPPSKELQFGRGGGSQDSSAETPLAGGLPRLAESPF
- protocol notes: cell-based or functional assay
Positions of bridges follow the written chain, without caps; N, C: chain ends. Non-standard residues stand in square brackets, D forms with d. No end group written: not given here. Aib = CC(C)(N)C(=O)O
Answers are plain numbers, in %.

binder: Y[Aib]QGTFTSDYSKYLDCRRAQVFVQWLMRT [glucagon derivative of SEQ ID NO: 16]
quantitative result: 4.2
//
binder: Y[Aib]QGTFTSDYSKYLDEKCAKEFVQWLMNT [glucagon derivative of SEQ ID NO: 11]
quantitative result: 4.6

For this binder ( W[Aib]QGTFTSDYSKYCDERRAKEFVQWLMNT (lactam 16-20) [glucagon derivative of SEQ ID NO: 34] ), measured In vitro activity (relative activity to SEQ ID NO: 1, %), cAMP assay, from EC50 is 0.2
